assay-text: Inhibition of MERS-CoV 3CLpro using FAM-SAVLQ as substrate preincubated with enzyme for 1 hr followed by susbtrate addition and measured after 1 hr by FRET assay
Set-up: species or system Middle East respiratory syndrome-related coronavirus
// values below are reported IC50

compound | IC50 [nM]
CC(C)C[C@H](NC(=O)OCC(C)(C)Sc1ccccc1)C(=O)N[C@@H](C[C@@H]1CCNC1=O)C(O)(C(=O)NC1CC1)S(=O)(=O)O (some centres undefined) | 180
CC(C)C[C@H](NC(=O)OCC(C)(C)Sc1ccccc1)C(=O)N[C@H](C=O)C[C@@H]1CCNC1=O | 80
[2H]C([2H])(OC(=O)N[C@@H](CC(C)C)C(=O)N[C@H](C=O)C[C@@H]1CCNC1=O)C(C)(C)Oc1cccc(Cl)c1 | 40
CC(C)C[C@H](NC(=O)OCC(C)(C)Sc1nc2ccccc2[nH]1)C(=O)N[C@@H](C[C@@H]1CCNC1=O)C(O)S(=O)(=O)O (some centres undefined) | 210

* * *

Here we list compounds with their recorded IC50 when tested on Procathepsin L (Homo sapiens, UniProt P07711).
Sequence (P07711 whole entry): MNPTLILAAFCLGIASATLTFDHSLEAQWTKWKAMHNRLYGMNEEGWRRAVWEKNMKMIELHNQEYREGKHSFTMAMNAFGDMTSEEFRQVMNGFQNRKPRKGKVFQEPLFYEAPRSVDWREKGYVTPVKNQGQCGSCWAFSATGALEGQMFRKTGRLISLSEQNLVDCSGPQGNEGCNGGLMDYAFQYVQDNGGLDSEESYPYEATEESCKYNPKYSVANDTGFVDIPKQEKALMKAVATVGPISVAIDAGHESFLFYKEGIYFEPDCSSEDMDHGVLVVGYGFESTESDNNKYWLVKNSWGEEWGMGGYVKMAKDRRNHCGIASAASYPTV
measured-property: IC50 (nM)

item-smiles | val
CC(C)C[C@H](NC(=O)OCC(C)(C)Oc1cccc(Cl)c1)C(=O)N[C@H](C=O)C[C@@H]1CCNC1=O | 20
CC(C)C[C@H](NC(=O)OCC(C)(C)Sc1ccccc1)C(=O)N[C@H](C#N)C[C@@H]1CCNC1=O | 30
[2H]C([2H])(OC(=O)N[C@@H](CC(C)C)C(=O)N[C@H](C=O)C[C@@H]1CCNC1=O)C(C)(C)Sc1ccccc1 | 30
[2H]C([2H])(OC(=O)N[C@@H](CC(C)C)C(=O)N[C@H](C=O)C[C@@H]1CCNC1=O)C(C)(C)Oc1ccc(Cl)cc1 | 40
CC(C)C[C@H](NC(=O)OCC(C)(C)Sc1ccccc1)C(=O)N[C@@H](C[C@@H]1CCNC1=O)C(=O)C(=O)NC1CC1 | 40
CC(C)C[C@H](NC(=O)OCC(C)(C)Sc1cccc(Cl)c1)C(=O)N[C@H](C=O)C[C@@H]1CCNC1=O | 30
CC(C)C[C@H](NC(=O)OCC(C)(C)Oc1ccc(F)cc1)C(=O)N[C@H](C=O)C[C@@H]1CCNC1=O | 30
CC(C)C[C@H](NC(=O)OCC(C)(C)Sc1ccccc1)C(=O)N[C@H](C=O)C[C@@H]1CCNC1=O | 30

* * *

pIC50 values, listed per item
measured-on: Replicase polyprotein 1ab (Severe acute respiratory syndrome coronavirus 2, UniProt P0DTD1)
pIC50: −log10 of the molar value.

compound | pIC50
CC(C)C[C@H](NC(=O)OCC(C)(C)Sc1ccccc1)C(=O)N[C@H](C#N)C[C@@H]1CCNC1=O | 6.31
CC(C)C[C@H](NC(=O)OCC(C)(C)Oc1cccc(Cl)c1)C(=O)N[C@H](C=O)C[C@@H]1CCNC1=O | 6.72
CC(C)C[C@H](NC(=O)OCC(C)(C)Sc1ccccc1)C(=O)N[C@@H](C[C@@H]1CCNC1=O)C(=O)C(=O)NC1CC1 | 6.68
CC(C)C[C@H](NC(=O)OCC(C)(O)c1cccc(Cl)c1)C(=O)N[C@H](C=O)C[C@@H]1CCNC1=O (mixture of isomers) | 6.54
[2H]C([2H])(OC(=O)N[C@@H](CC(C)C)C(=O)N[C@H](C=O)C[C@@H]1CCNC1=O)C(C)(C)Oc1cccc(Cl)c1 | 6.52
CC(C)C[C@H](NC(=O)OCC(C)(C)Sc1cccc(Cl)c1)C(=O)N[C@@H](C[C@@H]1CCNC1=O)C(O)S(=O)(=O)O (some centres undefined) | 6.77
CC(C)C[C@H](NC(=O)OCC(C)(C)Sc1nc2ccccc2[nH]1)C(=O)N[C@H](C=O)C[C@@H]1CCNC1=O | 6.52
CC(C)C[C@H](NC(=O)OCC(C)(C)[S+]([O-])c1ccccc1)C(=O)N[C@@H](C[C@@H]1CCNC1=O)C(O)S(=O)(=O)O (mixture of isomers) | 6.46
[2H]C([2H])(OC(=O)N[C@@H](CC(C)C)C(=O)N[C@@H](C[C@@H]1CCNC1=O)C(O)S(=O)(=O)[O-])C(C)(C)Sc1ccccc1.[Na+] (some centres undefined) | 6.51
CC(C)C[C@H](NC(=O)OCC(C)(C)Sc1cccc(F)c1)C(=O)N[C@H](C=O)C[C@@H]1CCNC1=O | 6.85
CC(C)C[C@H](NC(=O)OCC(C)(C)Oc1ccc(F)cc1)C(=O)N[C@@H](C[C@@H]1CCNC1=O)C(O)S(=O)(=O)O (some centres undefined) | 6.64
CC(C)C[C@H](NC(=O)OCC(C)(C)Oc1cccc(Cl)c1)C(=O)N[C@@H](C[C@@H]1CCNC1=O)C(O)S(=O)(=O)O (some centres undefined) | 6.68
CC(C)C[C@H](NC(=O)OCC(C)(C)Sc1ccc(F)cc1)C(=O)N[C@H](C=O)C[C@@H]1CCNC1=O | 6.77
CC(C)C[C@H](NC(=O)OCC(C)(C)Sc1ccccc1)C(=O)N[C@@H](C[C@@H]1CCNC1=O)C(O)(C(=O)NC1CC1)S(=O)(=O)O (some centres undefined) | 6.35

* * *

Recorded IC50, one value per entry.
measured-on: chymotrypsin (Homo sapiens, UniProt P17538+P40313+Q6GPI1+Q99895)
assay-text: Inhibition of human chymotrypsin
Assay type: toxicity

item-smiles | IC50
CC(C)C[C@H](NC(=O)OCC(C)(C)Sc1cccc(Cl)c1)C(=O)N[C@H](C=O)C[C@@H]1CCNC1=O | > 50 µM
CC(C)C[C@H](NC(=O)OCC(C)(C)Oc1cccc(Cl)c1)C(=O)N[C@H](C=O)C[C@@H]1CCNC1=O | > 50 µM
CC(C)C[C@H](NC(=O)OCC(C)(C)Sc1ccccc1)C(=O)N[C@H](C=O)C[C@@H]1CCNC1=O | > 50 µM
CC(C)C[C@H](NC(=O)OCC(C)(C)Sc1ccccc1)C(=O)N[C@@H](C[C@@H]1CCNC1=O)C(=O)C(=O)NC1CC1 | > 50 µM
CC(C)C[C@H](NC(=O)OCC(C)(C)Oc1ccc(F)cc1)C(=O)N[C@H](C=O)C[C@@H]1CCNC1=O | > 50 µM
[2H]C([2H])(OC(=O)N[C@@H](CC(C)C)C(=O)N[C@H](C=O)C[C@@H]1CCNC1=O)C(C)(C)Sc1ccccc1 | > 50 µM
[2H]C([2H])(OC(=O)N[C@@H](CC(C)C)C(=O)N[C@H](C=O)C[C@@H]1CCNC1=O)C(C)(C)Oc1ccc(Cl)cc1 | > 50 µM
CC(C)C[C@H](NC(=O)OCC(C)(C)Sc1ccccc1)C(=O)N[C@H](C#N)C[C@@H]1CCNC1=O | > 50 µM

* * *

measured-on: Cathepsin B (Homo sapiens)
measured-property: IC50 (µM)

item-smiles | measured-property | val
CC(C)C[C@H](NC(=O)OCC(C)(C)Oc1cccc(Cl)c1)C(=O)N[C@H](C=O)C[C@@H]1CCNC1=O | IC50 | 0.9
[2H]C([2H])(OC(=O)N[C@@H](CC(C)C)C(=O)N[C@H](C=O)C[C@@H]1CCNC1=O)C(C)(C)Oc1ccc(Cl)cc1 | IC50 | 0.8
CC(C)C[C@H](NC(=O)OCC(C)(C)Sc1ccccc1)C(=O)N[C@H](C=O)C[C@@H]1CCNC1=O | IC50 | 1.9
[2H]C([2H])(OC(=O)N[C@@H](CC(C)C)C(=O)N[C@H](C=O)C[C@@H]1CCNC1=O)C(C)(C)Sc1ccccc1 | IC50 | 2
CC(C)C[C@H](NC(=O)OCC(C)(C)Oc1ccc(F)cc1)C(=O)N[C@H](C=O)C[C@@H]1CCNC1=O | IC50 | 1.9
CC(C)C[C@H](NC(=O)OCC(C)(C)Sc1ccccc1)C(=O)N[C@H](C#N)C[C@@H]1CCNC1=O | IC50 | 2.6
CC(C)C[C@H](NC(=O)OCC(C)(C)Sc1cccc(Cl)c1)C(=O)N[C@H](C=O)C[C@@H]1CCNC1=O | IC50 | 1.4
CC(C)C[C@H](NC(=O)OCC(C)(C)Sc1ccccc1)C(=O)N[C@@H](C[C@@H]1CCNC1=O)C(=O)C(=O)NC1CC1 | IC50 | 2

* * *

System: Feline infectious peritonitis virus
assay-text: Antiviral activity against FIPV 1146 infected in CRFK cells assessed as inhibition of viral replication incubated for upto 168 hrs by TCID50 method
Format: functional, organism-based
test-context: Alphacoronavirus 1, 1146, CRFK
pEC50: −log10 of the molar value.
Consider the following compounds and their measured pEC50 readings.
measured-property: pEC50

item-smiles | val
CC(C)C[C@H](NC(=O)OCC(C)(C)Oc1ccc(F)cc1)C(=O)N[C@H](C=O)C[C@@H]1CCNC1=O | 7.15
CC(C)C[C@H](NC(=O)OCC(C)(C)Sc1cccc(Cl)c1)C(=O)N[C@H](C=O)C[C@@H]1CCNC1=O | 6.72
[2H]C([2H])(OC(=O)N[C@@H](CC(C)C)C(=O)N[C@H](C=O)C[C@@H]1CCNC1=O)C(C)(C)Oc1ccc(Cl)cc1 | 7.00
CC(C)C[C@H](NC(=O)OCC(C)(C)Sc1ccccc1)C(=O)N[C@H](C#N)C[C@@H]1CCNC1=O | 5.88
CC(C)C[C@H](NC(=O)OCC(C)(C)Sc1ccccc1)C(=O)N[C@H](C=O)C[C@@H]1CCNC1=O | 7.10
[2H]C([2H])(OC(=O)N[C@@H](CC(C)C)C(=O)N[C@H](C=O)C[C@@H]1CCNC1=O)C(C)(C)Sc1ccccc1 | 7.00
CC(C)C[C@H](NC(=O)OCC(C)(C)Oc1cccc(Cl)c1)C(=O)N[C@H](C=O)C[C@@H]1CCNC1=O | 7.22
CC(C)C[C@H](NC(=O)OCC(C)(C)Sc1ccccc1)C(=O)N[C@@H](C[C@@H]1CCNC1=O)C(=O)C(=O)NC1CC1 | 6.15
